tested on: Caov-3 cell line; assay: Cytotoxicity in human Caov3 cells assessed as reduction in cell viability incubated for 48 hrs by MTT assay; format: functional, cell-based; settings: Caov-3, 48 h
observation.type: pIC50
Scale explanation: pIC50 corresponds to minus log10 of a concentration expressed in moles per litre.

molecule | tested.on | quantitative.readout
Cn1c([N+](=O)[O-])cnc1COC(=O)NC(n1cnc2c(N)nc(Cl)nc21)C(Cl)(Cl)Cl (configuration not stated) | Caov-3 cell line | 4.19
Cc1ncc([N+](=O)[O-])n1CCOC(=O)NC(Nc1ccc2ccccc2n1)C(Cl)(Cl)Cl (configuration not stated) | Caov-3 cell line | 4.14
Cc1ncc([N+](=O)[O-])n1CCOC(=O)NC(Nc1nc(Cl)cc(Cl)n1)C(Cl)(Cl)Cl (configuration not stated) | Caov-3 cell line | 4.65
Cc1ncc([N+](=O)[O-])n1CCOC(=O)NC(Nc1cc2ccccc2cn1)C(Cl)(Cl)Cl (configuration not stated) | Caov-3 cell line | 4.02
Cc1ccnc(NC(NC(=O)OCCn2c([N+](=O)[O-])cnc2C)C(Cl)(Cl)Cl)n1 (configuration not stated) | Caov-3 cell line | 3.81

(Q) What pIC50 value was documented for this molecule, Nc1nc(N)c2ncn(C(NC(=O)OCCN3CCOCC3)C(Cl)(Cl)Cl)c2n1 (configuration not stated) ?
(A) 4.98

(Q) What pIC50 value was documented for this molecule, Nc1nc(F)nc2c1ncn2C(NC(=O)OCCc1ccccn1)C(Cl)(Cl)Cl (configuration not stated) ?
(A) 5.96

(Q) What pIC50 value was documented for this molecule, CCOC(=O)NC(n1cnc2c(N)nc(F)nc21)C(Cl)(Cl)Cl (configuration not stated) ?
(A) 6.22

(Q) What pIC50 value was documented for this molecule, Nc1nc(F)nc2c1ncn2C(NC(=O)OCCN1CCOCC1)C(Cl)(Cl)Cl (configuration not stated) ?
(A) 5.82

(Q) What pIC50 value was documented for this molecule, CCOC(=O)NC(n1cnc2c(N)nc(Cl)nc21)C(Cl)(Cl)Cl (configuration not stated) ?
(A) 4.03

(Q) What pIC50 value was documented for this molecule, Cc1ncc([N+](=O)[O-])n1CCOC(=O)NC(n1cnc2c(N)nc(F)nc21)C(Cl)(Cl)Cl (configuration not stated) ?
(A) 5.92

Values compiled from ChEMBL document CHEMBL4402600.
